Collected melting point values appear next to each entry.

Use these answered entries as a reference point.
C#CCN(C)S(=O)(=O)c1cnc2ccc(Cl)cc2c1 | 146 to 147 °C
C#CCN(C)S(=O)(=O)c1ccc2nc(Cl)ccc2c1 | 140 to 141 °C
C#CCSc1ccc2cc(S(=O)(=O)N(C)CC#C)ccc2n1 | 164 to 165 °C
C#CCN(C)S(=O)(=O)c1ccc2c(Cl)ccnc2c1 | 119 to 120 °C
C#CCN(C)S(=O)(=O)c1cccc2c(Cl)ccnc12 | 130 to 133 °C

Q) Give its melting point value. Item: "C#CCSc1ccc2ncc(SCC#C)cc2c1"
A) 97 to 98 °C

Q) Give its melting point value. Item: "C#CCSc1ccnc2cc(S(=O)(=O)N(C)CC#C)ccc12"
A) 113 to 114 °C
